Test system: IGROV1-R10 ovarian cancer cells
protocol-summary: PARP and caspase 3 cleavage by western blot
Type: cell-based
Parameters: key: +: a little band corresponding to the 85 kDa cleaved form of PARP is observable on the western blot; ++: a band corresponding to the 85 kDa cleaved form of PARP is clearly observable on the western blot; +++: PARP in nearly completely cleaved
measurement-conditions: Molecule + Bcl-xL targeting siRNA
Procedure: Exponentially growing cells were transfected by siRNA as described below, and after 48 h, cells were continuously exposed to (Het)aromatic oligosystems (10, 25 or 50 μM) dissolved in DMSO (<0.1% of total volume) for 4 to 24 supplementary hours. Cells were seeded in 25 cm^2 flasks the day before to reach 30-50% confluency at the time of transfection. […]
readout: PARP cleavage

Cc1cc(-c2ncc(-c3ccccc3)cc2/C=C/c2ccccc2)cnc1-c1cccnc1 : +++
Cc1cc(-c2ncc(-c3cccnc3)cc2/C=C/c2ccccc2)cnc1-c1ccccc1 : +++
Cc1cc(-c2ncc(-c3ccccc3)cc2/C=C/c2ccccc2)cnc1-c1ccccc1 : +
Cc1cc(-c2ncc(-c3cccnc3)cc2/C=C/c2ccccc2)cnc1-c1cccnc1 : +++

====

Test system: IGROV1-R10 ovarian cancer cells
protocol-summary: Nuclear morphology after DAPI staining
Format: cell-based
Parameters: key: +: a few condensed or fragmented nuclei are observable after DAPI staining; ++: numerous condensed or fragmented nuclei are observable after DAPI staining (20-50%); +++: most of the nuclei are condensed or fragmented
measurement-conditions: Molecule + Bcl-xL targeting siRNA, DAPI staining
readout: Apoptotic nuclear features

COc1ccc(-c2ncc(-c3ncc(-c4cc(OC)c(OC)c(OC)c4)cc3/C=C/c3ccccc3)cc2C)cc1OC : +
Cc1cc(-c2ncc(-c3cccnc3)cc2/C=C/c2ccccc2)cnc1-c1cccnc1 : +++
COc1cc(-c2cnc(-c3cnc(-c4cc(OC)c(OC)c(OC)c4)c(C)c3)c(/C=C/c3ccccc3)c2)cc(OC)c1OC : +

====

Test system: IGROV1-R10 ovarian cancer cells
protocol-summary: Nuclear morphology after DAPI staining
Type: cell-based
Set-up: key: +: a few condensed or fragmented nuclei are observable after DAPI staining; ++: numerous condensed or fragmented nuclei are observable after DAPI staining (20-50%); +++: most of the nuclei are condensed or fragmented
measurement-conditions: Molecule + Bcl-xL targeting siRNA, DAPI staining
readout: Apoptotic nuclear features

Cc1cc(-c2ncc(-c3cccnc3)cc2/C=C/c2ccccc2)cnc1-c1ccccc1 [compound 31349] : +++
Cc1cc(-c2ncc(-c3cnc(Cl)n3C)cc2/C=C/c2ccccc2)cnc1-c1cnc(Cl)n1C [compound 31351] : +++
Cc1cc(-c2ncc(-c3ccn[nH]3)cc2/C=C/c2ccccc2)cnc1-c1ccn[nH]1 [compound 31363] : +++
COc1ccc(-c2cnc(-c3cnc(-c4ccc(OC)c(OC)c4)c(C)c3)c(/C=C/c3ccccc3)c2)cc1OC [compound 30846] : +

====

Tested on: IGROV1-R10 ovarian cancer cells
protocol-summary: Nuclear morphology after DAPI staining
Type: cell-based
Design: key: +: a few condensed or fragmented nuclei are observable after DAPI staining; ++: numerous condensed or fragmented nuclei are observable after DAPI staining (20-50%); +++: most of the nuclei are condensed or fragmented
measurement-conditions: Molecule + Bcl-xL targeting siRNA, DAPI staining
readout: Apoptotic nuclear features

Cc1cc(-c2ncc(-c3ccccc3)cc2/C=C/c2ccccc2)cnc1-c1ccccc1 : +
COc1ccc(-c2cnc(-c3cnc(-c4cc(OC)c(OC)c(OC)c4)c(C)c3)c(/C=C/c3ccccc3)c2)cc1OC : +

====

System: IGROV1-R10 ovarian cancer cells
protocol-summary: Nuclear morphology after DAPI staining
Type: cell-based
Set-up: key: +: a few condensed or fragmented nuclei are observable after DAPI staining; ++: numerous condensed or fragmented nuclei are observable after DAPI staining (20-50%); +++: most of the nuclei are condensed or fragmented
measurement-conditions: Molecule + Bcl-xL targeting siRNA, DAPI staining
readout: Apoptotic nuclear features

Cc1cc(-c2ncc(-c3cccnc3)cc2/C=C/c2ccccc2)cnc1-c1cccc(C/C(N)=N/O)c1 : +++
Cc1cc(-c2ncc(-c3ccc(C#N)cc3)cc2/C=C/c2ccccc2)cnc1-c1ccc(C#N)cc1 : +
Cc1cc(-c2ncc(-c3ccccc3)cc2/C=C/c2ccccc2)cnc1-c1cccnc1 : +++
